Entry source: patent US20240092919A1

Parameter % Lysis, T cell mediated MOLM-13 cell killing, human primary T cells, E:T 10:1: see the listing below.
- target-entity: T1, Human T cell receptor on human primary T cells (human, UniProt P01848 1-140; P01850 1-176); further: test concentration or dose not given here
- T1 TCR alpha (looked up): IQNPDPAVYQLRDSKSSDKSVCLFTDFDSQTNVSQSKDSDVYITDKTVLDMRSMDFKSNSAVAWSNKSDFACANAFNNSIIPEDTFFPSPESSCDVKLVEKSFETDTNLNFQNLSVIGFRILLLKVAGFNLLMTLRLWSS
- T1 TCR beta (looked up): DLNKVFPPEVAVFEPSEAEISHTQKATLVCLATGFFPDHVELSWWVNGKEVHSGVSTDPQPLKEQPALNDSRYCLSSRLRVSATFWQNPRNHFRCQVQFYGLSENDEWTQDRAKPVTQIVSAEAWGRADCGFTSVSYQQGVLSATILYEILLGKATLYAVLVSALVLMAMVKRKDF
- assay-protocol: cell-based or functional assay
measured-quantity: % Lysis, T cell mediated MOLM-13 cell killing, human primary T cells, E:T 10:1 (%)

[
  {
    "binder": "T017000630 (bispecific antibody, also called A0110056A10(E1D)-35GS-T0170056G05(L11V, G26W, L34Y, M77T, K83R, V89L, F91Y, F95L, R97K, Y99W)-A) DVQLVESGGGLVQAGGSLRLSCAASGITSKINDMGWYRQTPGNYREWVASITATGTTNYRDSVKGRFTISRDNAKSTVYLQMNSLKPEDTTVYYCNTFPPISNFWGQGTLVTVSSGGGGSGGGGSGGGGSGGGGSGGGGSGGGGSGGGGSEVQLVESGGGVVQPGGSLRLSCVASWDVHKINFYGWYRQAPGKEREKVAHISIGDQTDYADSAKGRFTISRDESKNTVYLQMNSLRPEDTALYYCRALSKIWPYDYWGQGTLVTVSSA",
    "unit-of-measure": "%",
    "reading": 0
  },
  {
    "binder": "T017000639 (bispecific antibody) DVQLVESGGGVVQPGGSLRLSCVASWDVHKINFYTWYRQAPGKEREKVAHISIGDQTDYADSAKGRFTISRDESKNTVYLQMNSLRPEDTALYYCRALSRIWPYDYWGQGTLVTVSSGGGGSGGGGSGGGGSGGGGSGGGGSGGGGSGGGGSEVQLVESGGGLVQAGGSLRLSCAASGITSKINDMGWYRQTPGNYREWVASITATGTTNYRDSVKGRFTISRDNAKSTVYLQMNSLKPEDTTVYYCNTFPPISNFWGQGTLVTVSSA",
    "unit-of-measure": "%",
    "reading": 42
  },
  {
    "binder": "T017000128 (bispecific antibody) DVQLVESGGGLVQPGGSLRLSCVASGDVHKINFLGWYRQAPGKEREKVAHISIGDQTDYADSAKGRFTISRDESKNMVYLQMNSLKPEDTAVYFCRAFSRIYPYDYWGQGTLVTVSSGGGGSGGGGSGGGGSGGGGSGGGGSGGGGSGGGGSEVQLVESGGGLVQAGGSLRLSCAASGITSKINDMGWYRQTPGNYREWVASITATGTTNYRDSVKGRFTISRDNAKSTVYLQMNSLKPEDTTVYYCNTFPPISNFWGQGTLVTVSSA",
    "unit-of-measure": "%",
    "reading": 32
  },
  {
    "binder": "T017000637 (bispecific antibody, also called A0110056A10(E1D)-35GS-T0170056G05(L11V, G26W, K30Q, L34Y, M77T, K83R, V89L, F91Y, M95L, Y99W)-A) DVQLVESGGGLVQAGGSLRLSCAASGITSKINDMGWYRQTPGNYREWVASITATGTTNYRDSVKGRFTISRDNAKSTVYLQMNSLKPEDTTVYYCNTFPPISNFWGQGTLVTVSSGGGGSGGGGSGGGGSGGGGSGGGGSGGGGSGGGGSEVQLVESGGGVVQPGGSLRLSCVASWDVHQINFYGWYRQAPGKEREKVAHISIGDQTDYADSAKGRFTISRDESKNTVYLQMNSLRPEDTALYYCRALSRIWPYDYWGQGTLVTVSSA",
    "unit-of-measure": "%",
    "reading": 0
  },
  {
    "binder": "T017000643 (bispecific antibody, also called A0110056A10(E1D)-35GS-T0170056G05(L11V, G26W, L34Y, G35T, M77T, K83R, V89L, F91Y, F95L, R97K, Y99W)-A) DVQLVESGGGLVQAGGSLRLSCAASGITSKINDMGWYRQTPGNYREWVASITATGTTNYRDSVKGRFTISRDNAKSTVYLQMNSLKPEDTTVYYCNTFPPISNFWGQGTLVTVSSGGGGSGGGGSGGGGSGGGGSGGGGSGGGGSGGGGSEVQLVESGGGVVQPGGSLRLSCVASWDVHKINFYTWYRQAPGKEREKVAHISIGDQTDYADSAKGRFTISRDESKNTVYLQMNSLRPEDTALYYCRALSKIWPYDYWGQGTLVTVSSA",
    "unit-of-measure": "%",
    "reading": 0
  }
]
